Where do the numbers come from? From patent US20260174875A1.

# tested target: human GLP-1 receptor (human, UniProt P43220 24-463)
# procedure details: cell-based or functional assay
Numbered stars: 1 amine (or outer) side, 2 acyl side, 3 side chain; on linkers, the order of the positions; unused ones are H or OH. Square brackets hold non-standard residues; d marks the D form. Side chains are listed from the residue outwards. * marks the point of attachment. C18 diacid = O=C(O)CCCCCCCCCCCCCCCCC(=O)*; C16 diacid = O=C(O)CCCCCCCCCCCCCCC(=O)*; γGlu = O=C(O)[C@H](CCC(=O)[*:2])N[*:1]; Chem. 28 = not defined here; Chem. 29 = not defined here; AEEA = NCCOCCOCC(=O)O; Aib = CC(C)(N)C(=O)O
# binarize hGLP-1R Potency, no HSA, EC50 [pM]: threshold 10 pM inclusive, high side Y, low side N

Completed entries (count: 10):
Compound 56 (reading uncertain) peptide: Y[Aib]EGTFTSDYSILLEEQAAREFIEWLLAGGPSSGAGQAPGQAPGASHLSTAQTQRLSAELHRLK(Chem. 28)TLPRTETGSGSP-NH2; Y
Compound 38 (reading uncertain) peptide: Y[Aib]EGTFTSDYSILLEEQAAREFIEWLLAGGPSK(Chem. 28)GGQAPGQAPGEASHLSTAQTQRLSAELHELATLPRTETGSGSP-NH2; Y
Compound 69 (peptide) peptide: H[Aib]HGTFTSDYSILLEEQAAREFIEWLLAGGPSRGEASHLSTAQTQRLSAELHK([AEEA-AEEA-γGlu-C18 diacid])LATLPRTETGSGSP-NH2; N
Compound 97 (peptide) peptide: Y[Aib]EGTFTSDYSILLEEQAAREFIEWLLAGGPSSGAGQAPGASHLSTAQTQRLSAELHK([AEEA-AEEA-γGlu-C18 diacid])LATLPRTETGSGSP-NH2; Y
Compound 20 (reading uncertain) peptide: Y[Aib]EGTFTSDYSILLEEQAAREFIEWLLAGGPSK(Chem. 29)GASELSTAALGRLSAELHRLATLPRTETGSGSP-NH2; Y
Compound 49 (reading uncertain) peptide: Y[Aib]EGTFTSDYSILLEEQAAREFIEWLLAGGPSSGAPPPSGGGEASHLSTAQTQRLSAELHK(Chem. 28)LATLPRTETGSGSP-NH2; Y
Compound 95 (peptide) peptide: Y[Aib]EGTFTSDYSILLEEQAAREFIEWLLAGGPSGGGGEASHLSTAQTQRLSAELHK([AEEA-AEEA-γGlu-C18 diacid])LATLPRTETGSGSP-NH2; Y
Compound 72 (peptide) peptide: Y[Aib]EGTFTSDYSILLEEQAAREFIEWLLAGGPSRGAPPPSGGGEASHLSTQTQGRLSAELHK([AEEA-AEEA-γGlu-C18 diacid])LATLPRTETGSGSP-NH2; Y
Compound 88 (peptide) peptide: H[Aib]HGTFTSDYSILLEEQAAREFIEWLLAGGPSSGEASHLSTAALGRLSAELHK([AEEA-AEEA-γGlu-C18 diacid])LATLPRTETGSGSP-NH2; N
Compound 36 (reading uncertain) peptide: H[Aib]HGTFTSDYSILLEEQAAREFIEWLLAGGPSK(Chem. 28)GEASHLSTAQTARLSAELHELATLPRTETGSGSP-NH2; N

Say whether Compound 62 (peptide) peptide: H[Aib]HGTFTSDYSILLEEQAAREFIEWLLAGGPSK([AEEA-AEEA-γGlu-C16 diacid])GEASQLSTAALGRLSAELHRLADLPRTETGSGSP-NH2 shows hGLP-1R Potency, no HSA, EC50 [pM] of 10 pM or more.
N

Say whether Compound 30 (reading uncertain) peptide: H[Aib]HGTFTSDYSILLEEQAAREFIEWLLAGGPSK(Chem. 28)GAPPPSGGGEASELSTAALGRLSAELHRLATLPRTETGSGSP-NH2 shows hGLP-1R Potency, no HSA, EC50 [pM] of 10 pM or more.
N
